Test system: 966289-007-R4-J1-PDC complex spheroid viability
EXPERIMENT SUMMARY: Anticancer human tumor 966289-007-R4-J1-PDC patient-derived pancreatic adenocarcinoma cell line growth inhibition [GQUAD]; active means viability on the fitted dose curve at most 10% of control; inactive means the rest
TEST SETTINGS: second compound 10 µM; first compound 0.316 µM
Answer with one of the outcomes active, inactive

COc1cccc2c1C(=O)c1c(O)c3c(c(O)c1C2=O)CC(O)(C(=O)CO)CC3OC1CC(N)C(O)C(C)O1 (stereo not drawn) + Cc1cnc(CNC(=O)c2c(=O)c3ccc(N4CCCN(C)CC4)nc3n3c2sc2ccccc23)cn1 | active
CC(C)n1c(=O)n(C)c2cnc3cc(F)c(-c4ccc(OCCCN5CCCCC5)nc4)cc3c21 + Cc1cnc(CNC(=O)c2c(=O)c3ccc(N4CCCN(C)CC4)nc3n3c2sc2ccccc23)cn1 | active

Query compound follows.
Any idea what this test logged for Cc1cccc(N(C)C(=O)C2C(O)CCN2c2nc(C)cc(C(F)(F)F)c2C#N)c1 (stereo not drawn) + Cc1[nH]c2ccc(F)cc2c1-c1nc2c3cccnc3c3ncccc3c2[nH]1 ? inactive

* * *

Tested on: 966289-007-R4-J1-PDC complex spheroid viability
EXPERIMENT SUMMARY: Anticancer human tumor 966289-007-R4-J1-PDC cell line growth inhibition [GQUAD];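 further: spheroids exposed to the agents for seven days before readout; percent viability relative to DMSO vehicle control wells taken as 100%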
TEST SETTINGS: second compound 1 µM; first compound 0.1 µM; active compounds read low
QUANTITY MEASURED: viability, T/C (%)
Numeric answer only, unit % assumed.

Below, 2 compounds whose answers are already recorded.
Nc1ccn(C2OC(CO)C(O)C2(F)F)c(=O)n1 (stereo not drawn) + Cc1cnc(CNC(=O)c2c(=O)c3ccc(N4CCCN(C)CC4)nc3n3c2sc2ccccc23)cn1 | 1.01
C=CC(=O)N1CCN(c2nc(=O)n(-c3c(C)ccnc3C(C)C)c3nc(-c4c(O)cccc4F)c(F)cc23)C(C)C1 (stereo not drawn) + Cc1cnc(CNC(=O)c2c(=O)c3ccc(N4CCCN(C)CC4)nc3n3c2sc2ccccc23)cn1 | 5.8

Let us move to another entry and its viability, T/C.
Consider the compound shown here: Cc1cccc(N(C)C(=O)C2C(O)CCN2c2nc(C)cc(C(F)(F)F)c2C#N)c1 (stereo not drawn) + CN(C)c1ccc(Nc2c3ccc(NC(=O)CCN4CCCC4)cc3nc3cc(NC(=O)CCN4CCCC4)ccc23)cc1 What is its recorded viability, T/C? 105

* * *

System: 966289-007-R4-J1-PDC complex spheroid viability
EXPERIMENT SUMMARY: Anticancer human tumor 966289-007-R4-J1-PDC cell line growth inhibition [GQUAD];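 further: spheroids exposed to the agents for seven days before readout; percent viability relative to DMSO vehicle control wells taken as 100%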
TEST SETTINGS: second compound 10 µM; first compound 3.16 µM; active compounds read low
viability, T/C under 1% gets condition met, anything at or over 1% gets condition not met.

Would you please look over these solved cases?
CC(C)(O)C1CCC(Nc2ccc3ncc(-c4cccc(C(F)(F)F)c4)n3n2)CC1 (stereo not drawn) + Cc1cnc(CNC(=O)c2c(=O)c3ccc(N4CCCN(C)CC4)nc3n3c2sc2ccccc23)cn1 | condition met
COc1ccc([C@@H](O)c2cc(-c3ncnc4cc(N5CCOCC5)ccc34)c(F)cc2Cl)nn1 + Cc1[nH]c2ccc(F)cc2c1-c1nc2c3cccnc3c3ncccc3c2[nH]1 | condition not met
O=C(c1cc(Cc2n[nH]c(=O)c3ccccc23)ccc1F)N1CCN(C(=O)C2CC2)CC1 + CN(C)c1ccc(Nc2c3ccc(NC(=O)CCN4CCCC4)cc3nc3cc(NC(=O)CCN4CCCC4)ccc23)cc1 | condition not met
CC(C)n1c(=O)n(C)c2cnc3cc(F)c(-c4ccc(OCCCN5CCCCC5)nc4)cc3c21 + Cc1[nH]c2ccc(F)cc2c1-c1nc2c3cccnc3c3ncccc3c2[nH]1 | condition not met

Take the molecule Cc1cccc(N(C)C(=O)C2C(O)CCN2c2nc(C)cc(C(F)(F)F)c2C#N)c1 (stereo not drawn) + Cc1[nH]c2ccc(F)cc2c1-c1nc2c3cccnc3c3ncccc3c2[nH]1 and say whether its viability, T/C is less than 1%. condition not met

Take the molecule CC(=O)O[C@H]1C(=O)[C@@]2(C)[C@H]([C@H](OC(=O)c3ccccc3)[C@]3(O)C[C@H](OC(=O)[C@H](O)[C@@H](NC(=O)c4ccccc4)c4ccccc4)C(C)=C1C3(C)C)[C@]1(OC(C)=O)CO[C@@H]1C[C@@H]2O + Cc1cnc(CNC(=O)c2c(=O)c3ccc(N4CCCN(C)CC4)nc3n3c2sc2ccccc23)cn1 and say whether its viability, T/C is less than 1%. condition met

Take the molecule C=CCn1c(=O)c2cnc(Nc3ccc(N4CCN(C)CC4)cc3)nc2n1-c1cccc(C(C)(C)O)n1 + Cc1cnc(CNC(=O)c2c(=O)c3ccc(N4CCCN(C)CC4)nc3n3c2sc2ccccc23)cn1 and say whether its viability, T/C is less than 1%. condition met

Take the molecule COc1cccc2c1C(=O)c1c(O)c3c(c(O)c1C2=O)CC(O)(C(=O)CO)CC3OC1CC(N)C(O)C(C)O1 (stereo not drawn) + CN(C)c1ccc(Nc2c3ccc(NC(=O)CCN4CCCC4)cc3nc3cc(NC(=O)CCN4CCCC4)ccc23)cc1 and say whether its viability, T/C is less than 1%. condition met

Take the molecule CC(=O)O[C@H]1C(=O)[C@@]2(C)[C@H]([C@H](OC(=O)c3ccccc3)[C@]3(O)C[C@H](OC(=O)[C@H](O)[C@@H](NC(=O)c4ccccc4)c4ccccc4)C(C)=C1C3(C)C)[C@]1(OC(C)=O)CO[C@@H]1C[C@@H]2O + CN(C)c1ccc(Nc2c3ccc(NC(=O)CCN4CCCC4)cc3nc3cc(NC(=O)CCN4CCCC4)ccc23)cc1 and say whether its viability, T/C is less than 1%. condition not met

Take the molecule Cc1cccc(N(C)C(=O)C2C(O)CCN2c2nc(C)cc(C(F)(F)F)c2C#N)c1 (stereo not drawn) + Cc1cnc(CNC(=O)c2c(=O)c3ccc(N4CCCN(C)CC4)nc3n3c2sc2ccccc23)cn1 and say whether its viability, T/C is less than 1%. condition met

Take the molecule C=CC(=O)N1CCN(c2nc(=O)n(-c3c(C)ccnc3C(C)C)c3nc(-c4c(O)cccc4F)c(F)cc23)C(C)C1 (stereo not drawn) + CN(C)c1ccc(Nc2c3ccc(NC(=O)CCN4CCCC4)cc3nc3cc(NC(=O)CCN4CCCC4)ccc23)cc1 and say whether its viability, T/C is less than 1%. condition not met

Take the molecule CC(C)n1c(=O)n(C)c2cnc3cc(F)c(-c4ccc(OCCCN5CCCCC5)nc4)cc3c21 + CN(C)c1ccc(Nc2c3ccc(NC(=O)CCN4CCCC4)cc3nc3cc(NC(=O)CCN4CCCC4)ccc23)cc1 and say whether its viability, T/C is less than 1%. condition not met

Take the molecule CC(C)n1c(=O)n(C)c2cnc3cc(F)c(-c4ccc(OCCCN5CCCCC5)nc4)cc3c21 + Cc1cnc(CNC(=O)c2c(=O)c3ccc(N4CCCN(C)CC4)nc3n3c2sc2ccccc23)cn1 and say whether its viability, T/C is less than 1%. condition met

Take the molecule Cc1cccc(N(C)C(=O)C2C(O)CCN2c2nc(C)cc(C(F)(F)F)c2C#N)c1 (stereo not drawn) + CN(C)c1ccc(Nc2c3ccc(NC(=O)CCN4CCCC4)cc3nc3cc(NC(=O)CCN4CCCC4)ccc23)cc1 and say whether its viability, T/C is less than 1%. condition not met

Take the molecule C=CC(=O)N1CCN(c2nc(=O)n(-c3c(C)ccnc3C(C)C)c3nc(-c4c(O)cccc4F)c(F)cc23)C(C)C1 (stereo not drawn) + Cc1cnc(CNC(=O)c2c(=O)c3ccc(N4CCCN(C)CC4)nc3n3c2sc2ccccc23)cn1 and say whether its viability, T/C is less than 1%. condition not met

Take the molecule Nc1ccn(C2OC(CO)C(O)C2(F)F)c(=O)n1 (stereo not drawn) + Cc1[nH]c2ccc(F)cc2c1-c1nc2c3cccnc3c3ncccc3c2[nH]1 and say whether its viability, T/C is less than 1%. condition not met

Take the molecule COc1cccc2c1C(=O)c1c(O)c3c(c(O)c1C2=O)CC(O)(C(=O)CO)CC3OC1CC(N)C(O)C(C)O1 (stereo not drawn) + Cc1cnc(CNC(=O)c2c(=O)c3ccc(N4CCCN(C)CC4)nc3n3c2sc2ccccc23)cn1 and say whether its viability, T/C is less than 1%. condition met

Take the molecule CC1COCCN1c1cc(C2(O)CC3CCC(C2)O3)c2cnn(-c3ccn[nH]3)c2n1 (stereo not drawn) + CN(C)c1ccc(Nc2c3ccc(NC(=O)CCN4CCCC4)cc3nc3cc(NC(=O)CCN4CCCC4)ccc23)cc1 and say whether its viability, T/C is less than 1%. condition not met

* * *

Test system: 966289-007-R4-J1-PDC complex spheroid viability
EXPERIMENT SUMMARY: Anticancer human tumor 966289-007-R4-J1-PDC cell line growth inhibition [GQUAD]; active means viability on the fitted dose curve at most 10% of control; inactive means the rest;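 further: spheroids exposed to the agents for seven days before readout; percent viability relative to DMSO vehicle control wells taken as 100%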
TEST SETTINGS: second compound 3.16 µM; first compound 0.316 µM
Answer with one of the outcomes y = active, n = inactive

Would you please look over these solved cases?
CC(C)(O)C1CCC(Nc2ccc3ncc(-c4cccc(C(F)(F)F)c4)n3n2)CC1 (stereo not given) + CN(C)c1ccc(Nc2c3ccc(NC(=O)CCN4CCCC4)cc3nc3cc(NC(=O)CCN4CCCC4)ccc23)cc1 | n
CC[C@@]1(O)C(=O)OCc2c1cc1n(c2=O)Cc2cc3c(CN(C)C)c(O)ccc3nc2-1 + CN(C)c1ccc(Nc2c3ccc(NC(=O)CCN4CCCC4)cc3nc3cc(NC(=O)CCN4CCCC4)ccc23)cc1 | y

Any idea what this test logged for C=CC(=O)N1CCN(c2nc(=O)n(-c3c(C)ccnc3C(C)C)c3nc(-c4c(O)cccc4F)c(F)cc23)C(C)C1 (stereo not given) + CN(C)c1ccc(Nc2c3ccc(NC(=O)CCN4CCCC4)cc3nc3cc(NC(=O)CCN4CCCC4)ccc23)cc1 ? n

Any idea what this test logged for COc1ccc([C@@H](O)c2cc(-c3ncnc4cc(N5CCOCC5)ccc34)c(F)cc2Cl)nn1 + Cc1cnc(CNC(=O)c2c(=O)c3ccc(N4CCCN(C)CC4)nc3n3c2sc2ccccc23)cn1 ? y

Any idea what this test logged for O=C(c1cc(Cc2n[nH]c(=O)c3ccccc23)ccc1F)N1CCN(C(=O)C2CC2)CC1 + Cc1cnc(CNC(=O)c2c(=O)c3ccc(N4CCCN(C)CC4)nc3n3c2sc2ccccc23)cn1 ? y
